Field: HepSE_jaundice. Provide a value for each of the molecules that follow.

Request: Form entry - test system: Hepatotoxicity; read-out: HepSE_jaundice; molecule: CCN(CC)CC#CCOC(=O)C(O)(c1ccccc1)C1CCCCC1 (centres undefined); also: call rule not given here
Response: 0

Request: # returns recorded HepSE_jaundice (system: Hepatotoxicity) for C[C@H]1c2cccc(O)c2C(=O)C2=C(O)[C@]3(O)C(=O)C(C(N)=O)=C(O)[C@@H](N(C)C)[C@@H]3[C@@H](O)[C@@H]21.O; also: call rule not given here
Response: 0

Request: Param readout = HepSE_jaundice; param system = Hepatotoxicity; param query = CNC1=Nc2ccc(Cl)cc2C(c2ccccc2)=[N+]([O-])C1 [CHLORDIAZEPOXIDE] ; response: value; also: call rule not given here
Response: 1

Request: Form entry - test system: Hepatotoxicity; read-out: HepSE_jaundice; molecule: CC[N+](C)(C)Cc1ccccc1Br; also: call rule not given here
Response: 0

Request: Short answer please: HepSE_jaundice, Hepatotoxicity, entry O=C1Nc2ccc(Cl)cc2[C@@](C#CC2CC2)(C(F)(F)F)O1
Response: 1

Request: Fill in the recorded HepSE_jaundice for this molecule, with Hepatotoxicity as test system: CCC1(c2ccc(N)cc2)CCC(=O)NC1=O (centres undefined) [AMINOGLUTETHIMIDE]
Response: 0

Request: Quick check: HepSE_jaundice on Hepatotoxicity, item CCCC(C)(COC(N)=O)COC(N)=O [MEPROBAMATE] ?
Response: 0

Request: Under Hepatotoxicity: HepSE_jaundice value of CN[C@@H]1[C@H](O)[C@H](NC)[C@H]2O[C@@]3(O)C(=O)C[C@@H](C)O[C@H]3O[C@@H]2[C@H]1O ?
Response: 0

Request: Which HepSE_jaundice is reported with Hepatotoxicity for this entry: CC(CCc1ccc(O)cc1)NCCc1ccc(O)c(O)c1 (centres undefined) ?
Response: 0

====

Measured parameter: HepSE_jaundice

Request: For Hepatotoxicity, provide HepSE_jaundice of CCN(CC)CCOC(=O)C1(C2CCCCC2)CCCCC1 please.
Response: 0

Request: Form field: HepSE_jaundice recorded for OCCOCCN1CCN(C(c2ccccc2)c2ccc(Cl)cc2)CC1 (stereo not drawn) [HYDROXYZINE] with Hepatotoxicity (enter value)
Response: 0

Request: Please provide the recorded HepSE_jaundice for CO[C@]12CC[C@@]3(C[C@@H]1[C@](C)(O)C(C)(C)C)[C@H]1Cc4ccc(O)c5c4[C@@]3(CCN1CC1CC1)[C@H]2O5 , tested on Hepatotoxicity. Also: call rule not given here.
Response: 0

Request: Value wanted: HepSE_jaundice (Hepatotoxicity) of entry CCc1c2c(nc3ccc(OC(=O)N4CCC(N5CCCCC5)CC4)cc13)-c1cc3c(c(=O)n1C2)COC(=O)[C@]3(O)CC
Response: 1

Request: Give HepSE_jaundice (Hepatotoxicity) of the following compound: COc1cc2c(cc1OC)[C@@H](Cc1cc(OC)c(OC)c(OC)c1)[N+](C)(CCCOC(=O)CC/C=C/CCC(=O)OCCC[N+]1(C)CCc3cc(OC)c(OC)cc3[C@H]1Cc1cc(OC)c(OC)c(OC)c1)CC2 (stereo partly drawn)
Response: 0

Request: Notebook entry, Hepatotoxicity assay: HepSE_jaundice of C[C@@H](NCCCc1cccc(C(F)(F)F)c1)c1cccc2ccccc12 = ?
Response: 0

Request: Lab request: please report HepSE_jaundice under test system Hepatotoxicity for C#C[C@]1(O)CC[C@H]2[C@@H]3CCC4=Cc5oncc5C[C@]4(C)[C@H]3CC[C@@]21C; also: call rule not given here
Response: 1

Request: Test system Hepatotoxicity; read-out HepSE_jaundice; what value for O=C1CN=C(c2ccccn2)c2cc(Br)ccc2N1 ?;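 also: Jaundice-related hepatic side-effect score drawn from the training data of the DILIps (drug-induced liver injury prediction system)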; also: call rule not given here
Response: 0
